Biological target: p110α/p85α (Homo sapiens)
Construct: purchased Invitrogen
Sequence (P42336 whole entry, species assumed, one chain of several): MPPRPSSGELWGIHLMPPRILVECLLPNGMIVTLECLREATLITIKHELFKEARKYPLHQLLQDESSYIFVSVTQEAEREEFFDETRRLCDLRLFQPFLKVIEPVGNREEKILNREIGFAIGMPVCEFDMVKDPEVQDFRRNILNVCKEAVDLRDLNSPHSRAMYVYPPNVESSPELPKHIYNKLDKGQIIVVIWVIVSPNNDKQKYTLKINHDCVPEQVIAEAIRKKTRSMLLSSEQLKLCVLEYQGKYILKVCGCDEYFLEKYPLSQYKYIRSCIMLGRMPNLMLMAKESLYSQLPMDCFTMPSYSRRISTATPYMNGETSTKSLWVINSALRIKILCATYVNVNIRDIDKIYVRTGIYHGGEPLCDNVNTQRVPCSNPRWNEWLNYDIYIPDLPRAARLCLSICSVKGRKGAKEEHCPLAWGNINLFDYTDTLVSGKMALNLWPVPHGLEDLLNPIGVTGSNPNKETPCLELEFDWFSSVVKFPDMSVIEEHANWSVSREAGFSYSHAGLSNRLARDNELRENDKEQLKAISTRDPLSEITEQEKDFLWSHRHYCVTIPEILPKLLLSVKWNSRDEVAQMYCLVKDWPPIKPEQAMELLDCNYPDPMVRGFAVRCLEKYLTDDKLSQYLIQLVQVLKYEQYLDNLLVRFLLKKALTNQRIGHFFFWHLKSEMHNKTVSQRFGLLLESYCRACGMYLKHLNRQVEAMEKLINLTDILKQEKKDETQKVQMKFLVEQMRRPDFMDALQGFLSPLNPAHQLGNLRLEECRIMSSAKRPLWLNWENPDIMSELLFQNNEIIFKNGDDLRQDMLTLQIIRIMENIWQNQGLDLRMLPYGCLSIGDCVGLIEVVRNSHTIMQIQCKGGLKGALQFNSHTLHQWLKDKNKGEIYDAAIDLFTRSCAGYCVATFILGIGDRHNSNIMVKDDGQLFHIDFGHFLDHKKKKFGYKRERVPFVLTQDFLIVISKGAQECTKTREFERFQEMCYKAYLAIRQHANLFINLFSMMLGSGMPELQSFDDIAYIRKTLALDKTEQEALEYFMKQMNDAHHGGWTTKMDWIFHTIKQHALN
Assay: Transcreener KINASE Assay, kinase inhibition of p110α/p85α
Type: biochemical
Settings: read-out: PI3Kα IC50
pIC50: −log10 of the molar value.
PROPERTY: pIC50

INSERT INTO results (compound, result) VALUES
  ('N#Cc1cnc(N)nc1N1CC[C@H]1c1nn2ccc(Cl)c2c(=O)n1-c1ccccc1 [Compound 212]', '< 6.00');

* * *

Molecular target: p110δ/p85α (Homo sapiens, UniProt O00329)
Construct: purchased Invitrogen
Sequence (O00329 whole entry, species assumed): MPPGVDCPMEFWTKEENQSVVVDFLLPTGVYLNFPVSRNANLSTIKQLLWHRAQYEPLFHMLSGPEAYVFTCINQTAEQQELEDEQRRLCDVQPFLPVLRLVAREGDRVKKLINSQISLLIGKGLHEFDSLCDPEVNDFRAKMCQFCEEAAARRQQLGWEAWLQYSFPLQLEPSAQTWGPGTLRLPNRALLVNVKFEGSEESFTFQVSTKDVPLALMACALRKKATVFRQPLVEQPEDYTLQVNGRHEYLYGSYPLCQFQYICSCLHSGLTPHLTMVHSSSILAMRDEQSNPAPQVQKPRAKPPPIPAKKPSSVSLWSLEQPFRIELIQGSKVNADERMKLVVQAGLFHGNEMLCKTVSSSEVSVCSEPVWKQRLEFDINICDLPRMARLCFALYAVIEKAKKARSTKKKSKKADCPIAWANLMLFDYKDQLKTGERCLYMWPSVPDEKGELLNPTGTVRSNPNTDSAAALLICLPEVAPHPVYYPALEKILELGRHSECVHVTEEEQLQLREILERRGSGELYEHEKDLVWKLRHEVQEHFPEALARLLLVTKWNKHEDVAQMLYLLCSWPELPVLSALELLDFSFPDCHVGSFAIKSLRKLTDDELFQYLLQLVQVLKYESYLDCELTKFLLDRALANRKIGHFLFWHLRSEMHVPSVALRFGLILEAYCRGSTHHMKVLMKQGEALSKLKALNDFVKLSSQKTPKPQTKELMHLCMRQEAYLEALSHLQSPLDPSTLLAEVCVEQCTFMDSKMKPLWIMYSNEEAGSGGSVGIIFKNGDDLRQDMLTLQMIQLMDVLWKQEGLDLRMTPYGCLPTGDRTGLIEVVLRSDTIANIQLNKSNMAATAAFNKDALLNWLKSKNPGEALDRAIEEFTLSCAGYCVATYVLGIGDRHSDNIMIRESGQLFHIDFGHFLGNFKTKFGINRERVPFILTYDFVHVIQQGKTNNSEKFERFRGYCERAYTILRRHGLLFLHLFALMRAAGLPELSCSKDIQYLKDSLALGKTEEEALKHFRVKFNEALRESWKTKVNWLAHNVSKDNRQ
Sequence (P27986 whole entry partner, species assumed): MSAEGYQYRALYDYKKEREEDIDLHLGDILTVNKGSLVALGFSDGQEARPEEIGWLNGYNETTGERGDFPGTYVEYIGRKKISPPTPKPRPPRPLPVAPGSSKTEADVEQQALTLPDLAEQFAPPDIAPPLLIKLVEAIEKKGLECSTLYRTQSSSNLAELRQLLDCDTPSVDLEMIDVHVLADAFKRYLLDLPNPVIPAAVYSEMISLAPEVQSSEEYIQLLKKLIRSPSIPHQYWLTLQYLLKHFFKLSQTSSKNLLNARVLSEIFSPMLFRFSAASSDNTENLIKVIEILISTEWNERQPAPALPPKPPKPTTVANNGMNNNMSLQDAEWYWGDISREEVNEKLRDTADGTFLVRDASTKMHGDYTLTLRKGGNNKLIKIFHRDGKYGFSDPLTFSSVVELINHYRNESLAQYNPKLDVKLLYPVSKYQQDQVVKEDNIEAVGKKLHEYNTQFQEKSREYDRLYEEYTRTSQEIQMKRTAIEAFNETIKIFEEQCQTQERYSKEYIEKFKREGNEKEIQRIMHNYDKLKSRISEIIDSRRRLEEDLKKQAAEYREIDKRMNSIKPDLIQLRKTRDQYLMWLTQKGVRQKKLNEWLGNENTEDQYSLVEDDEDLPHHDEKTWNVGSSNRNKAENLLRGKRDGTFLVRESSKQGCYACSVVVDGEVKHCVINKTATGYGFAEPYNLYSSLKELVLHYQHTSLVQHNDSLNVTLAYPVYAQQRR
Assay: Transcreener KINASE Assay, kinase inhibition of p110δ/p85α
Assay type: biochemical
Conditions: read-out: PI3Kδ IC50
Listed compounds paired with reported log10 IC50
PROPERTY: log10 IC50 (log10 of the value in nM)

INSERT INTO measurements (compound, assayed_system, property, readout_number) VALUES
  ('O=c1c2c(Cl)ccn2nc([C@@H]2CC(F)(F)CN2c2ncnc3[nH]cnc23)n1Cc1ccccn1', 'p110δ/p85α (Homo sapiens, UniProt O00329)', 'log10 IC50', 2.10),
  ('CC(=O)c1cnc(N)nc1NC(C)c1cn2ccc(F)c2c(=O)n1-c1ccccc1 (single isomer, unassigned)', 'p110δ/p85α (Homo sapiens, UniProt O00329)', 'log10 IC50', -0.52),
  ('O=c1c2cccn2nc([C@@H]2CCCN2c2ncnc3[nH]cc(Cl)c23)n1-c1ccccc1', 'p110δ/p85α (Homo sapiens, UniProt O00329)', 'log10 IC50', 1.18),
  ('CC(Nc1ncnc2[nH]cc(C#N)c12)c1cn2ccc(Cl)c2c(=O)n1-c1cccc(F)c1 (stereo not shown)', 'p110δ/p85α (Homo sapiens, UniProt O00329)', 'log10 IC50', 0.60),
  ('O=c1c2c(Cl)ccn2nc([C@@H]2CCCN2c2ncnc3[nH]cnc23)n1CC1CC1', 'p110δ/p85α (Homo sapiens, UniProt O00329)', 'log10 IC50', 0.78),
  ('O=c1c2cccn2nc([C@@H]2CCCN2c2ncnc3[nH]nc(Br)c23)n1-c1ccccc1', 'p110δ/p85α (Homo sapiens, UniProt O00329)', 'log10 IC50', 2.20);
